// provenance: patent US20080032921A1

Assignment: determine reported pIC50 for the given binders.
# TEST SYSTEM: HLA-DR DRB1*0401 (human)
# TEST PROTOCOL: competition vs 125I-labeled peptide, purified HLA
One number for each entry, as −log10 of the molar value.

Below, each entry is followed by its recorded pIC50 result.
{"BINDER": "VSLVKSDQICIGYHA (modifications not checked) [Flu.HA.11]", "pIC50": 6.29}
{"BINDER": "VVWLIKKNSTYPTIKR (modifications not checked) [Flu.HA.163]", "pIC50": 6.54}
{"BINDER": "EALMEWLKTRPILSP (modifications not checked) [Flu.M1.43]", "pIC50": 6.05}
{"BINDER": "PTTYISVGTSTLNQRL (modifications not checked) [Flu.HA.210]", "pIC50": 7.23}
{"BINDER": "ILSIYSTVASSLALAI (modifications not checked) [Flu.HA.532]", "pIC50": 7.04}
{"BINDER": "MEWLKTRPILSPLTK (modifications not checked) [Flu.M1.46]", "pIC50": 6.28}

Return reported pIC50 values for all items listed beneath this line.
1. IYQILSIYSTVASSLA (modifications not checked) [Flu.HA.529]
2. KSSFFRNVVWLIKKN (modifications not checked) [Flu.HA.156]
3. CPKYVKSNRLVLATGL (modifications not checked) [Flu.HA.318]

# output
[7.05, 6.32, 6.06]
